SUBJECT_OF_TEST: Solute carrier family 2, facilitated glucose transporter member 1 (Homo sapiens)
TEST_SUMMARY: ST_JUDE_LEISH: Cytotoxicity at 2uM final concentration against transgenic Leishmania Mexicana promastigotes LmGLUT1 that are glucose transport deficient and complemented with the human glucose transporter GLUT1. Activity is measured by DNA content using SYBR green in vitro
Type: functional
ENDPOINT_LABEL: inhibition (%)

[[record]]
molecule = "COc1ccc(CCNc2ccnc3cc(Cl)ccc23)cc1OC"
reported_measurement = 2.61

[[record]]
molecule = "CCCCCCn1c(Sc2ccc(C#N)c([N+](=O)[O-])c2)nnc1-c1cccc(Cl)c1"
reported_measurement = 3.22

[[record]]
molecule = "CCc1ccc(NC(=O)N(CCCN2CCN(C)CC2)Cc2csc(-c3ccc(CNCc4ccccc4)cc3)n2)cc1"
reported_measurement = -1.59

[[record]]
molecule = "COc1ccccc1N1CCN(C(C(=O)NCc2ccc(C)cc2)c2ccc(C)cc2)CC1 (stereo not given)"
reported_measurement = -0.68

[[record]]
molecule = "CC(=O)Nc1ccc(C(=O)Nc2cccc(-c3ccc(-c4nc5cccc(C)c5[nH]4)cc3)c2)cn1"
reported_measurement = 4.86

[[record]]
molecule = "O=C(Nc1ccc(C(F)(F)F)cc1)NC1CCN(CCCCCNC(=O)C2CC2c2ccc(Cl)c(Cl)c2)CC1 (stereo not given)"
reported_measurement = -1.45

[[record]]
molecule = "Cc1cccc(Nc2nc(N)c3ccccc3n2)c1"
reported_measurement = 20.9

[[record]]
molecule = "O=C(C=Cc1ccc(Cl)c(Cl)c1)NCCCCCN1CCC(CCCNS(=O)(=O)c2ccc(Br)cc2)CC1"
reported_measurement = 3.69

[[record]]
molecule = "CC(C)NCc1ccc(-c2cccc(-c3nc4cc(C(F)(F)F)ccc4[nH]3)c2)cc1"
reported_measurement = 3.55

[[record]]
molecule = "Cc1ccc(S(=O)(=O)N(CCCNCc2cccc(O)c2)c2ccccc2)cc1"
reported_measurement = 9.85


The measurements presented in this section are drawn from ChEMBL document CHEMBL3433997.
